- test_name: Stability test in plasma
- Format: in vitro ADME
- condition: Rat plasma; 37° C.
result_type: half-life at 5 mM (h)
Express the result in h but write the number alone.

I would be grateful if you could share the reported half-life at 5 mM for CCOCCn1c(Cl)c(/C=N/NC(=O)c2cc3cc(OC)ccc3o2)c2cc(OC)ccc21 [Example 15] . 2.23

Query CCOC(=O)Cn1c(Cl)c(/C=N/NC(=O)c2cc3cc(C)ccc3o2)c2ccccc21 [Example 3] next 0.0767

====

Answer each item with its documented MRT inf.
- test_name: Pharmacokinetic (PK) test
- Type: in vivo, male ICR mice
- condition: male, ICR, mouse, plasma; Intravenous administration, 5 mg/kg; mice, n=3; read-out: MRTinf, Mean
Express the result in min but write the number alone.

I would be grateful if you could share the reported MRT inf for CCOCCn1c(Cl)c(/C=N/NC(=O)c2cc3cc(C)ccc3o2)c2ccccc21 . 17.4

Query CCOCCn1c(Cl)c(/C=N/NC(=O)c2cc3cc(OC)ccc3o2)c2cc(OC)ccc21 next 14.4

Query CCOCCn1c(Cl)c(/C=N/NC(=O)c2cc3cc(C)ccc3o2)c2cc(OC)ccc21 next 14.4

====

- test_name: Pharmacokinetic (PK) test
- Format: in vivo, male ICR mice
- condition: male, ICR, mouse, plasma; Oral administration, 20 mg/kg; mice, n=3; read-out: t1/2, Mean (converted)
result_type: half-life (min)
Express the result in min but write the number alone.

I would be grateful if you could share the reported half-life for CCOCCn1c(Cl)c(/C=N/NC(=O)c2cc3cc(C)ccc3o2)c2cc(OC)ccc21 [Example 8] . 24

Query CCOCCn1c(Cl)c(/C=N/NC(=O)c2cc3cc(C)ccc3o2)c2ccccc21 [Example 4] next 24

====

- System: NCI-H226
- test_name: Anti-proliferative activity in other cancer cell lines (MTT)
- Format: cell-based
- condition: Homo sapiens, 96 h, Lung, 4 days
result_type: IC50 (µM)
Express the result in µM but write the number alone.

I would be grateful if you could share the reported IC50 for CCOCCn1c(Cl)c(/C=N/NC(=O)c2cc3cc(C)ccc3o2)c2ccccc21 [Example 4] . 0.42

====

- test_name: Stability test in plasma
- Type: in vitro ADME
- condition: Human plasma; 37° C.
Answer each item with its documented half-life at 5 mM.

I would be grateful if you could share the reported half-life at 5 mM for CCOCCn1c(Cl)c(/C=N/NC(=O)c2cc3cc(C)ccc3o2)c2cc(OC)ccc21 . > 180 min

Query CCOC(=O)Cn1c(Cl)c(/C=N/NC(=O)c2cc3cc(C)ccc3o2)c2ccccc21 next > 180 min

Query CCOCCn1c(Cl)c(/C=N/NC(=O)c2cc3cc(C)ccc3o2)c2ccccc21 next > 180 min

Query Cc1ccc2oc(C(=O)N/N=C/c3c(Cl)n(C)c4ccccc34)cc2c1 next > 180 min

Query CCOCCn1c(Cl)c(/C=N/NC(=O)c2cc3cc(OC)ccc3o2)c2cc(OC)ccc21 next 160 min

====

Answer each item with its documented half-life at 5 mM.
- test_name: Stability test in plasma
- Assay type: in vitro ADME
- condition: Mouse plasma; 37° C.

I would be grateful if you could share the reported half-life at 5 mM for CCOCCn1c(Cl)c(/C=N/NC(=O)c2cc3cc(OC)ccc3o2)c2cc(OC)ccc21 . > 180 min

Query CCOC(=O)Cn1c(Cl)c(/C=N/NC(=O)c2cc3cc(C)ccc3o2)c2ccccc21 next 5.6 min

Query Cc1ccc2oc(C(=O)N/N=C/c3c(Cl)n(C)c4ccccc34)cc2c1 next > 180 min

Query CCOCCn1c(Cl)c(/C=N/NC(=O)c2cc3cc(C)ccc3o2)c2ccccc21 next > 180 min

Query CCOCCn1c(Cl)c(/C=N/NC(=O)c2cc3cc(C)ccc3o2)c2cc(OC)ccc21 next > 180 min
